- protocol_text: in vitro
- stated_conditions: human, hela cells, % viability
metric_name: viability at 28.5 h, 10 µM (%)
Entry rule: numbers only, all in %.

Query :: Need viability at 28.5 h, 10 µM, item COc1ccccc1OCCNC1CCc2cc(Cl)ccc2C1 (centres unmarked) [CBK013067C]
Result :: 93.2

Query :: Need viability at 28.5 h, 10 µM, item NS(=O)(=O)c1ccc(NS(=O)(=O)c2ccc(NC(=O)C3CC3)cc2)cc1 [CBK264958]
Result :: 103

Query :: Need viability at 28.5 h, 10 µM, item COc1cccc(-c2cccc(NS(=O)(=O)c3ccc4c(c3)CCC(=O)N4)c2)c1 [CBK286372]
Result :: 105

Query :: Need viability at 28.5 h, 10 µM, item COc1ccnc(N2CCC(Oc3cccnc3N(C)C)C2)n1 (centres unmarked) [CBK304699]
Result :: 92.4

Query :: Need viability at 28.5 h, 10 µM, item O=C(NCc1cccs1)c1ccccc1-n1cccc1 [CBK149584]
Result :: 92
